# system: p300 (Homo sapiens, UniProt Q09472)
# Construct: host or cells: A549 P300 HiBit cells
# Sequence (Q09472 whole entry): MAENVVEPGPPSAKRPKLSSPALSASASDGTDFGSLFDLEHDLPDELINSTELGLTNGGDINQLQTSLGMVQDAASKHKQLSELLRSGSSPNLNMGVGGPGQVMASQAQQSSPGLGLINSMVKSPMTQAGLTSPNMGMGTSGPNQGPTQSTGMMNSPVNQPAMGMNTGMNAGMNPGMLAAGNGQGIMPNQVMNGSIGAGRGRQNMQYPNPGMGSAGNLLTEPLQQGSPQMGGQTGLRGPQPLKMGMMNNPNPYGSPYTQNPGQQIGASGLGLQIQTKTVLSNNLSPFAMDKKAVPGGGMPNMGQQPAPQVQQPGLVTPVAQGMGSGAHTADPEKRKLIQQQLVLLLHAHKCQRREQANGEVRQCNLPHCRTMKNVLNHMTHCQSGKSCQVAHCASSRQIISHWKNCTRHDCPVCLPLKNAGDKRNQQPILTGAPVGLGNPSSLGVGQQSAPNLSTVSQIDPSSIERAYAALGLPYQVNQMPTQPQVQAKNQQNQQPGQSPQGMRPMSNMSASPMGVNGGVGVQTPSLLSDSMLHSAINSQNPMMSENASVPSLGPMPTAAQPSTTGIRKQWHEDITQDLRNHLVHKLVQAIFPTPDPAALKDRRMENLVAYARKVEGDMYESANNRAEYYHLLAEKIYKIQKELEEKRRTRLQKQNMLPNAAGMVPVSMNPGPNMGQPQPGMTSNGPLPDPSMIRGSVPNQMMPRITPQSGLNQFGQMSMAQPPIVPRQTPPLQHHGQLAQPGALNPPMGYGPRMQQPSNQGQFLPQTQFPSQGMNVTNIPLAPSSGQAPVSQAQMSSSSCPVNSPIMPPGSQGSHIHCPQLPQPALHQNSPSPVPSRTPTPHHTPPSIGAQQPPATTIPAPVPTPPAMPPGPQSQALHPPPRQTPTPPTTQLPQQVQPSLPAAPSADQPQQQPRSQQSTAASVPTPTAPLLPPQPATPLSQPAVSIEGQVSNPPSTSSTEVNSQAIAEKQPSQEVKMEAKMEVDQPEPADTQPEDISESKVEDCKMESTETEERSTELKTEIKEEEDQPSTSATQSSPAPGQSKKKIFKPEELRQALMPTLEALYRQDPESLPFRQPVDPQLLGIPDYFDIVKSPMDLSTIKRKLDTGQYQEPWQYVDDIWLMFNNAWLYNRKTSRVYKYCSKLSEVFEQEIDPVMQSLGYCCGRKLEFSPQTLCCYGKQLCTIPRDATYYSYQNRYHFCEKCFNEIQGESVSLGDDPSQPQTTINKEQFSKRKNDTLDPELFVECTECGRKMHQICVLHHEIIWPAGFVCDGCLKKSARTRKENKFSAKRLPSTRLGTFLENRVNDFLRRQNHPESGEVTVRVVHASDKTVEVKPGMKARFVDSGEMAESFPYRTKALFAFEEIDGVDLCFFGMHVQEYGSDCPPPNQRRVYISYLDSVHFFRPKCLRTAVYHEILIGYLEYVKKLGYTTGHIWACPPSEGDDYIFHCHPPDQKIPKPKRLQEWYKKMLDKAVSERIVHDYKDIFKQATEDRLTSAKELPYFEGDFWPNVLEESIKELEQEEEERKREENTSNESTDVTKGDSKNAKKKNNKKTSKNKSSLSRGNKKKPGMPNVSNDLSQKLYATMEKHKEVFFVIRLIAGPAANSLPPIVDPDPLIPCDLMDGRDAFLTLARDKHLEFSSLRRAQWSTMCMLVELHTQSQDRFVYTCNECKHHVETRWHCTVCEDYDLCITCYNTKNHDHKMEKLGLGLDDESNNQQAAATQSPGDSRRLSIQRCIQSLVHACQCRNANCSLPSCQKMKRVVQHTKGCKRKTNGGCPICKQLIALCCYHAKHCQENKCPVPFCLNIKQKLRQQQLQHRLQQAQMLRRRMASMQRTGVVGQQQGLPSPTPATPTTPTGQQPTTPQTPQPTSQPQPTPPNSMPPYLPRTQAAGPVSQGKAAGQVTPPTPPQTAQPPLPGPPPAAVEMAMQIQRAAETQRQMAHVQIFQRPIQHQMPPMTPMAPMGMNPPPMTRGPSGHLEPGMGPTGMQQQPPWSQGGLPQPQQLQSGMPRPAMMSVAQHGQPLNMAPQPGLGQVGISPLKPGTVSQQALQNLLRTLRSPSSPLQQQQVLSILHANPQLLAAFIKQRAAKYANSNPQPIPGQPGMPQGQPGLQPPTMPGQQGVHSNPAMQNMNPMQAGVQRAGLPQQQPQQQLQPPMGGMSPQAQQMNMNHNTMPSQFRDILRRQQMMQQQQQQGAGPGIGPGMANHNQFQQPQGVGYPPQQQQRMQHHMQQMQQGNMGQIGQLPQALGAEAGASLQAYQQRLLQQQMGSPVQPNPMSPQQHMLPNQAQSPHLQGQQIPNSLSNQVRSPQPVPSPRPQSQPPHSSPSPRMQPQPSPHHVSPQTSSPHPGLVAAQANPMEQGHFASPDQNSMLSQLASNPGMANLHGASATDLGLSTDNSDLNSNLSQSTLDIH
# assay_procedure: P300 degradation, HiBit technology in A549 P300 HiBit cells (2 h)
# Type: cell-based
# experimental_conditions: A549 P300 HiBit cells, 2 hrs post treatment
Provide the reported DC50 of each item.

Look up DC50 with p300 (Homo sapiens, UniProt Q09472) for this molecule: Cc1cc(-c2ccc(N(C)c3cc(C(C)C)c4c(c3)n(C)c(=O)n4C)cn2)cnc1C(=O)NCC#Cc1ccc2occ(C3CCC(=O)NC3=O)c2c1 (stereo not drawn) [Example A141]
1 to 9.9 nM

Cool, now Cc1cc2c(N3CCCc4nc(-c5ccc(C(=O)NCC#Cc6cc7c(C8CCC(=O)NC8=O)cccc7o6)nc5)ncc43)cc(C3CCC3)cc2n(C)c1=O (stereo not drawn) [Example B161]
1 to 9.9 nM

Likewise for Cc1cc2c(-c3cccc4cc(-c5ccc(C(=O)NCC#Cc6cc7c(C8CCC(=O)NC8=O)cccc7o6)nc5)ncc34)nc(N3CCOCC3)cc2n(C)c1=O (stereo not drawn) [Example B74] ?
1 to 9.9 nM

* * *

# system: p300 (Homo sapiens)
# Construct: host or cells: A549 P300 HiBit cells
# assay_procedure: P300 degradation, HiBit technology in A549 P300 HiBit cells (2 h)
# Format: cell-based
# experimental_conditions: A549 P300 HiBit cells, 2 hrs post treatment
Exercise: state measured DC50 for each of the compounds provided.

// lookup DC50 for Cc1cc(-c2ncc3c(n2)CCCN3c2cc(C3CCOCC3)cc3c2cc(C)c(=O)n3C)cnc1C(=O)NCC#Cc1cc2c(C3CCC(=O)NC3=O)cccc2s1 (centres unmarked)
1 to 9.9 nM

Then this compound: Cc1cc(-c2cc3cccc(-c4cc5c(c(N6CC7CCC(C6)O7)n4)n(C)c(=O)n5C)c3cn2)cnc1C(=O)NCC#Cc1ccc2occ(C3CCC(=O)NC3=O)c2c1 (centres unmarked)
1 to 9.9 nM

Try the compound CC(C)c1cc(-c2cccc3cc(-c4ccc(C(=O)NCC#Cc5cc(N(C)C)c6cnn(C7CCC(=O)NC7=O)c6c5)nc4)ncc23)cc2c1n(C)c(=O)n2C (centres unmarked)
10 to 99 nM

Further, for Cc1cc2c(N3CCCc4nc(-c5ccc(C(=O)NCC#Cc6cc7c(C8CCC(=O)NC8=O)cccc7o6)nc5)ncc43)cc(C3CC4CCC(C3)O4)nc2n(C)c1=O (centres unmarked) ?
1 to 9.9 nM

Ok, now Cc1cc(-c2ncc3c(n2)CCCN3c2nc(N3CC4CCC(C3)O4)cc3c2cc(C)c(=O)n3C)cnc1C(=O)NCC#Cc1ccc2occ(C3CCC(=O)NC3=O)c2c1 (centres unmarked)
1 to 9.9 nM

Now consider CCc1cc(-c2cccc3cc(-c4ccc(C(=O)NCC#Cc5ccc6c(c5)n(C5CCC(=O)NC5=O)c(=O)n6C)nc4)ncc23)c2cc(C)c(=O)n(C)c2c1 (centres unmarked) .
1 to 9.9 nM

Note, next up: CC(C)c1cc(-c2cccc3cc(-c4ccc(C(=O)NCC#Cc5ccc6cnn(C7CCC(=O)NC7=O)c6c5F)nc4)ncc23)cc2c1n(C)c(=O)n2C (centres unmarked)
1 to 9.9 nM

Now try Cc1cc2c(N3CCCc4nc(-c5ccc(C(=O)NCC#Cc6ccc7occ(C8CCC(=O)NC8=O)c7c6)nc5)ncc43)cncc2n(C)c1=O (centres unmarked) .
1 to 9.9 nM

Subsequent entry: CC(C#Cc1ccc2occ(C3CCC(=O)NC3=O)c2c1)NC(=O)c1ccc(-c2ncc(N(C)c3cc(C(C)C)c4c(c3)n(C)c(=O)n4C)cn2)cn1 (centres unmarked)
> 1000 nM

Record: Cn1cc(-c2ccc3c(c2)n(C)c(=O)n3C)c2cnc(-c3ccc(C(=O)NCC#Cc4ccc5occ(C6CCC(=O)NC6=O)c5c4)nc3)cc2c1=O (centres unmarked)
1 to 9.9 nM

Now the compound CCc1cc(N(C)c2ccc(-c3cnc(C(=O)NCC#Cc4cccc(NC5CCC(=O)NC5=O)c4)c(C)c3)c(Cl)c2)c2cc(C)c(=O)n(C)c2c1 (centres unmarked)
10 to 99 nM
